Reference source for all entries: the supplement of paper PMC12042874

amyloid nucleation score values for the substances below.
# protocolNotes: amyloid nucleation score (Sup35N fusion, yeast selection) (log enrichment); library NNK1; higher = more nucleation; inactive = no reads after selection;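 also: zero at mode of non-aggregating sequences after 7 days selection at 30°C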

substance	amyloid nucleation score
SGRRTYMLRMLQWVGVIAYR	-2.36
ASIYMLRFMDLT	-0.244
DYKHNPKWKMCKCLLAIRNY	1.53
VRSFDDLRVNVSRSRCAMAQ	-0.906
GRGANLCYRTRTVLLVNNLS	-0.199
MIVDNHWHECYSRAS	-1.76
YAFLSEYFSAK	-0.054
FLFAMFNSISMKSAKLKWNR	3.91
TWVVTHPPTM	0.359
WRQYIDRNYVSCSASMLAWE	0.583
CGIING	-1.08
DRTRLVSHHTRIVRRWAHVY	0.064
SRCCGPCYTAV	-0.115
TFLMCRNACYK	4.35
VRLLTFDITSLFRVFYVKHR	0.103
VFRTISYRV	0.039
VCWYWVGILRMMICACTSPS	0.362
